Target: GST-Dm-Relish (Drosophila melanogaster, UniProt Q94527 99-473)
Sequence: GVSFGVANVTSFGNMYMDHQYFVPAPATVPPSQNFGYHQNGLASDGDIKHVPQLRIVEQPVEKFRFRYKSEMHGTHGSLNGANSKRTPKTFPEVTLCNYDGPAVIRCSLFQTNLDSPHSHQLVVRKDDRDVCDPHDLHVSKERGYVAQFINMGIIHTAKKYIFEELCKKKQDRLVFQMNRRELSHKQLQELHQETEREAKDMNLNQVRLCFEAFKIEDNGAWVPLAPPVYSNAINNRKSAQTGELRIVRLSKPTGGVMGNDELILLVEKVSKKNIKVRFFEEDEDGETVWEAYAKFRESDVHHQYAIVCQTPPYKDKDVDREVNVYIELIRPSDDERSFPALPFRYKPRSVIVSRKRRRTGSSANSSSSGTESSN
Assay: protein-binding microarray (PBM); PBM: ~300 nM protein, 6 mM HEPES pH 7.8, 80 mM KCl, 0.5 mM EDTA, 0.5 mM EGTA, 6% glycerol, 35 ng/ul poly-dIdC, 1% milk, 1 h, room temperature; high values mean tight binding
Conditions: dsDNA, one strand shown
For each record, write down the corresponding binding signal.
Express your answer in z-score, writing the number without its unit.

query: Return reported binding signal; argument: `CCGATTAACATCAGGGAATTCCCTGATGTTAATCGGGTCTTGATTCGCTTGACGCTGCTG`
result: 10

query: Return reported binding signal; argument: `CCGATTAACATCAAGGTATTCCCTGATGTTAATCGGGTCTTGATTCGCTTGACGCTGCTG`
result: 6.27

query: Return reported binding signal; argument: `CCGATTAACATCAAATCTTTCCCTGATGTTAATCGGGTCTTGATTCGCTTGACGCTGCTG`
result: 1.24

query: Return reported binding signal; argument: `CCGATTAACATCACGGACACCCCTGATGTTAATCGGGTCTTGATTCGCTTGACGCTGCTG`
result: 1.95

query: Return reported binding signal; argument: `CCGATTAACATCATTCCCGGAAATGATGTTAATCGGGTCTTGATTCGCTTGACGCTGCTG`
result: 1.05

query: Return reported binding signal; argument: `CCGATTAACATCACGGGGTTTCCTGATGTTAATCGGGTCTTGATTCGCTTGACGCTGCTG`
result: 7.75

query: Return reported binding signal; argument: `CCGATTAACATCAAGGGGATTTCTGATGTTAATCGGGTCTTGATTCGCTTGACGCTGCTG`
result: 9.09

query: Return reported binding signal; argument: `CCGATTAACATCAGGTGTTTCCATGATGTTAATCGGGTCTTGATTCGCTTGACGCTGCTG`
result: 2.26

query: Return reported binding signal; argument: `CCGATTAACATCACACTTTTCCCTGATGTTAATCGGGTCTTGATTCGCTTGACGCTGCTG`
result: 1.59

====

Target: GST-Nv-NF-kB (Cys allele) (Nematostella vectensis, UniProt E5G601 2-411)
Sequence: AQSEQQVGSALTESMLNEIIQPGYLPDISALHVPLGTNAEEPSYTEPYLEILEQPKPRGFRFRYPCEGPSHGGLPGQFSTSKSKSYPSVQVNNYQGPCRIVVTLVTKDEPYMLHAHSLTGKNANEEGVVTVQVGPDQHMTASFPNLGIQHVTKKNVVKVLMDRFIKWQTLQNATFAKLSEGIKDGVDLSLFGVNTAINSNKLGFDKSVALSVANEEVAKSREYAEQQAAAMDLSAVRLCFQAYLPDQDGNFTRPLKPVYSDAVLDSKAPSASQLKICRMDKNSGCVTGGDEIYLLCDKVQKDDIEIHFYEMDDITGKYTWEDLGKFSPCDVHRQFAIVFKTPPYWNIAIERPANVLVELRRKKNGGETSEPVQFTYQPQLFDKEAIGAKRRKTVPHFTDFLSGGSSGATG
Assay: protein-binding microarray (PBM); PBM: ~300 nM protein, 6 mM HEPES pH 7.8, 80 mM KCl, 0.5 mM EDTA, 0.5 mM EGTA, 6% glycerol, 35 ng/ul poly-dIdC, 1% milk, 1 h, room temperature; Ap Aiptasia and Nv Nematostella (sea anemones) / Co Capsaspora / Aq Amphimedon (sponge) / Dm Drosophila / Hu human; RHD is the Rel homology domain; high values mean tight binding
Details: dsDNA, one strand shown
Decide by binding signal: equal to or exceeding 4 z-score means Satisfied, less means Not satisfied.

query: Check if binding signal >= 4 z-score (inclusive). Item: `CCGATTAACATCAGAAGACCCCCTGATGTTAATCGGGTCTTGATTCGCTTGACGCTGCTG`
result: Not satisfied

query: Check if binding signal >= 4 z-score (inclusive). Item: `CCGATTAACATCAGGATTTGCCCTGATGTTAATCGGGTCTTGATTCGCTTGACGCTGCTG`
result: Not satisfied

query: Check if binding signal >= 4 z-score (inclusive). Item: `CCGATTAACATCAAAATTACCCATGATGTTAATCGGGTCTTGATTCGCTTGACGCTGCTG`
result: Satisfied

query: Check if binding signal >= 4 z-score (inclusive). Item: `CCGATTAACATCACGGGGGGTACTGATGTTAATCGGGTCTTGATTCGCTTGACGCTGCTG`
result: Not satisfied

query: Check if binding signal >= 4 z-score (inclusive). Item: `CCGATTAACATCAGAATTCCCGCTGATGTTAATCGGGTCTTGATTCGCTTGACGCTGCTG`
result: Satisfied

query: Check if binding signal >= 4 z-score (inclusive). Item: `CCGATTAACATCATAAATTCCCATGATGTTAATCGGGTCTTGATTCGCTTGACGCTGCTG`
result: Satisfied

query: Check if binding signal >= 4 z-score (inclusive). Item: `CCGATTAACATCAGGGACTTCCATGATGTTAATCGGGTCTTGATTCGCTTGACGCTGCTG`
result: Satisfied

query: Check if binding signal >= 4 z-score (inclusive). Item: `CCGATTAACATCATGTTGGGAAATGATGTTAATCGGGTCTTGATTCGCTTGACGCTGCTG`
result: Not satisfied

query: Check if binding signal >= 4 z-score (inclusive). Item: `CCGATTAACATCACGGGATTTGGTGATGTTAATCGGGTCTTGATTCGCTTGACGCTGCTG`
result: Not satisfied

query: Check if binding signal >= 4 z-score (inclusive). Item: `CCGATTAACATCAGGGGGAACCCTGATGTTAATCGGGTCTTGATTCGCTTGACGCTGCTG`
result: Satisfied

query: Check if binding signal >= 4 z-score (inclusive). Item: `CCGATTAACATCACTACCCCCCCTGATGTTAATCGGGTCTTGATTCGCTTGACGCTGCTG`
result: Not satisfied

query: Check if binding signal >= 4 z-score (inclusive). Item: `CCGATTAACATCAAGTACTTCCCTGATGTTAATCGGGTCTTGATTCGCTTGACGCTGCTG`
result: Not satisfied

query: Check if binding signal >= 4 z-score (inclusive). Item: `CCGATTAACATCAGGGGAATACATGATGTTAATCGGGTCTTGATTCGCTTGACGCTGCTG`
result: Satisfied

query: Check if binding signal >= 4 z-score (inclusive). Item: `CCGATTAACATCAACATCCCCCCTGATGTTAATCGGGTCTTGATTCGCTTGACGCTGCTG`
result: Satisfied

query: Check if binding signal >= 4 z-score (inclusive). Item: `CCGATTAACATCACGGGAATTCCTGATGTTAATCGGGTCTTGATTCGCTTGACGCTGCTG`
result: Satisfied

query: Check if binding signal >= 4 z-score (inclusive). Item: `CCGATTAACATCAAGTATTCCCCTGATGTTAATCGGGTCTTGATTCGCTTGACGCTGCTG`
result: Satisfied

query: Check if binding signal >= 4 z-score (inclusive). Item: `CCGATTAACATCAGGGGGTAACCTGATGTTAATCGGGTCTTGATTCGCTTGACGCTGCTG`
result: Not satisfied

query: Check if binding signal >= 4 z-score (inclusive). Item: `CCGATTAACATCAAGGGAATTCCTGATGTTAATCGGGTCTTGATTCGCTTGACGCTGCTG`
result: Satisfied

query: Check if binding signal >= 4 z-score (inclusive). Item: `CCGATTAACATCAAATGTTCCCCTGATGTTAATCGGGTCTTGATTCGCTTGACGCTGCTG`
result: Satisfied

query: Check if binding signal >= 4 z-score (inclusive). Item: `CCGATTAACATCAGGCATCCCCATGATGTTAATCGGGTCTTGATTCGCTTGACGCTGCTG`
result: Not satisfied

query: Check if binding signal >= 4 z-score (inclusive). Item: `CCGATTAACATCAATTCCCCTGATGATGTTAATCGGGTCTTGATTCGCTTGACGCTGCTG`
result: Satisfied

query: Check if binding signal >= 4 z-score (inclusive). Item: `CCGATTAACATCAAATTTTCCCCTGATGTTAATCGGGTCTTGATTCGCTTGACGCTGCTG`
result: Satisfied

query: Check if binding signal >= 4 z-score (inclusive). Item: `CCGATTAACATCAAATTTTCCCGTGATGTTAATCGGGTCTTGATTCGCTTGACGCTGCTG`
result: Satisfied

query: Check if binding signal >= 4 z-score (inclusive). Item: `CCGATTAACATCAAAAACTACCCTGATGTTAATCGGGTCTTGATTCGCTTGACGCTGCTG`
result: Not satisfied

query: Check if binding signal >= 4 z-score (inclusive). Item: `CCGATTAACATCAACGTATTCCCTGATGTTAATCGGGTCTTGATTCGCTTGACGCTGCTG`
result: Not satisfied

query: Check if binding signal >= 4 z-score (inclusive). Item: `CCGATTAACATCAGGGAGACCCCTGATGTTAATCGGGTCTTGATTCGCTTGACGCTGCTG`
result: Not satisfied

query: Check if binding signal >= 4 z-score (inclusive). Item: `CCGATTAACATCATTTTGGGGACTGATGTTAATCGGGTCTTGATTCGCTTGACGCTGCTG`
result: Not satisfied

query: Check if binding signal >= 4 z-score (inclusive). Item: `CCGATTAACATCACAGAATTCCCTGATGTTAATCGGGTCTTGATTCGCTTGACGCTGCTG`
result: Satisfied

query: Check if binding signal >= 4 z-score (inclusive). Item: `CCGATTAACATCAGGGAATTCCATGATGTTAATCGGGTCTTGATTCGCTTGACGCTGCTG`
result: Satisfied

query: Check if binding signal >= 4 z-score (inclusive). Item: `CCGATTAACATCAGGGAAAATACTGATGTTAATCGGGTCTTGATTCGCTTGACGCTGCTG`
result: Satisfied

query: Check if binding signal >= 4 z-score (inclusive). Item: `CCGATTAACATCACTTTCCCCCCTGATGTTAATCGGGTCTTGATTCGCTTGACGCTGCTG`
result: Satisfied

query: Check if binding signal >= 4 z-score (inclusive). Item: `CCGATTAACATCACCCCCACCCCTGATGTTAATCGGGTCTTGATTCGCTTGACGCTGCTG`
result: Not satisfied

query: Check if binding signal >= 4 z-score (inclusive). Item: `CCGATTAACATCAAAAACCACCCTGATGTTAATCGGGTCTTGATTCGCTTGACGCTGCTG`
result: Not satisfied
